- systemTested: human EGFR Ex19del+T790M+L792Y (Homo sapiens, UniProt P00533, DEL746-750/L792Y/T790M)
- Sequence (P00533 with tags, fused parts or gaps DEL746-750/T790M/L792Y): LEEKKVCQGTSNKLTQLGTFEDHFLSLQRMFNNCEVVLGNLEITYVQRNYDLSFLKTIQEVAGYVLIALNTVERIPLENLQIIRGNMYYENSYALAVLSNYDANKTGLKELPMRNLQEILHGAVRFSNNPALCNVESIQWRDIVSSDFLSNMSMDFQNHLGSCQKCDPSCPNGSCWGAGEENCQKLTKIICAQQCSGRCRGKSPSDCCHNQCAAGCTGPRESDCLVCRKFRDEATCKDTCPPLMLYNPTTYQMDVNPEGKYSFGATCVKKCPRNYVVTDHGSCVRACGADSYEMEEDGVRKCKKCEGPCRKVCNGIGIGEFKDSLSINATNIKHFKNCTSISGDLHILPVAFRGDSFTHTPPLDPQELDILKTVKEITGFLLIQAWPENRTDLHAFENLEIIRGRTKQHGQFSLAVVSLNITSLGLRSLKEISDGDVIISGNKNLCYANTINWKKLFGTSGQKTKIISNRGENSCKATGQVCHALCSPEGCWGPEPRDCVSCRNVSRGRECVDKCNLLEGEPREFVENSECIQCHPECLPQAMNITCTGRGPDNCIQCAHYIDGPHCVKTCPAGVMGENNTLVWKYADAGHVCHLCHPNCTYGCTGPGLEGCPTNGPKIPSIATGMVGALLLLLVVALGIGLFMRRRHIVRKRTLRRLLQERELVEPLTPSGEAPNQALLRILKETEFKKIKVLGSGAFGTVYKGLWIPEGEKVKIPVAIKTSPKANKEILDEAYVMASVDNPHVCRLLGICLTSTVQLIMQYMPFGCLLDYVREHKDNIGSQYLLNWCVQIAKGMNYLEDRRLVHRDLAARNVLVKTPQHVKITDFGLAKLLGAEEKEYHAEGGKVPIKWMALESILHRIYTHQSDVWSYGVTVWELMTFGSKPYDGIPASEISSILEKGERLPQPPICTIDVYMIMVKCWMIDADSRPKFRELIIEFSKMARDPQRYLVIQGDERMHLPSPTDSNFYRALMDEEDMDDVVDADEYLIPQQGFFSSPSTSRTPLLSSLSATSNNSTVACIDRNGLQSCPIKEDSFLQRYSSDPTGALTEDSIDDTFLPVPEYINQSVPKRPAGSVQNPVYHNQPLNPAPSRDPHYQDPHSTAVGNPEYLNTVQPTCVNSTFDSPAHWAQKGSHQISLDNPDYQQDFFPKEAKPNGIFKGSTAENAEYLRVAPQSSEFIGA
- assayNotes: Intracellular EGFR phosphorylation, mutant EGFR forced expression system using HEK293 cells
- runConditions: 6 hours incubation, p-EGFR (Tyr1068)/EGFR
resultType: IC50 (µM)
Hi! Could you send only the number? It should be in µM, unit omitted.

Look up IC50: "C=CC(=O)N[C@H]1C=C(C)c2c(-c3cnc4ccccc4c3)c3c(N)ncnc3n2C1"
6.54

----------
- systemTested: human EGFR Ex19del+T790M+L718Q (Homo sapiens, UniProt P00533, DEL746-750/L718Q/T790M)
- Sequence (P00533 with tags, fused parts or gaps L718Q/DEL746-750/T790M): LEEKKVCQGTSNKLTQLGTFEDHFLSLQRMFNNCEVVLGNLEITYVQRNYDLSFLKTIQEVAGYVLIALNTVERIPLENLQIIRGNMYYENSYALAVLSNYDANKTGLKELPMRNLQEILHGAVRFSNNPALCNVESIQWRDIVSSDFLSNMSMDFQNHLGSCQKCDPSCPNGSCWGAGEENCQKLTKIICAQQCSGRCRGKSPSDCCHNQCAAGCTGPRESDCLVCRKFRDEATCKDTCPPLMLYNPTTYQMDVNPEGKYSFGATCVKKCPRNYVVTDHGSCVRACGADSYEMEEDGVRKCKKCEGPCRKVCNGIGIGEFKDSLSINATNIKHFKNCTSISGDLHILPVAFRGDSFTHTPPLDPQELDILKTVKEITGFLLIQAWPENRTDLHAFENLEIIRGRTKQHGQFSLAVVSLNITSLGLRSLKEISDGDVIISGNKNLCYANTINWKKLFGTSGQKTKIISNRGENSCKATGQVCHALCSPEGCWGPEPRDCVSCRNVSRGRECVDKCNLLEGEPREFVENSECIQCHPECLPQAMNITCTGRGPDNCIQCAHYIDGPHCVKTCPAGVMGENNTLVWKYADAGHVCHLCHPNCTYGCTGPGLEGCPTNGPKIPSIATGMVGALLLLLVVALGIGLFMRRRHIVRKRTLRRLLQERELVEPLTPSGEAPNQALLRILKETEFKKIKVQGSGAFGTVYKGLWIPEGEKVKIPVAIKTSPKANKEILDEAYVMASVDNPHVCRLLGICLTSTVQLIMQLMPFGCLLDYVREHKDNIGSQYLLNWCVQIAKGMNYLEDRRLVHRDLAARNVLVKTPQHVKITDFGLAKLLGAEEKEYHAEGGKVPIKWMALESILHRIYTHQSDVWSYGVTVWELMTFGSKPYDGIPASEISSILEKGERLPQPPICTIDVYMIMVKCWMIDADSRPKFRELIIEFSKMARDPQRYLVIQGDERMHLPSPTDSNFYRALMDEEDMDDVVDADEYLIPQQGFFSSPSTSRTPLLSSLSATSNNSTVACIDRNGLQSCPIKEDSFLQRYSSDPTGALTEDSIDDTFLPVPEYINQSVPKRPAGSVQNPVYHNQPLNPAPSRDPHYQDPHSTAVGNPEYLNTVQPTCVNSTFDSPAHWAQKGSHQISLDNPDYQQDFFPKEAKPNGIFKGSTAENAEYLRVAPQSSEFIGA
- assayNotes: Intracellular EGFR phosphorylation, mutant EGFR forced expression system using HEK293 cells
- runConditions: 6 hours incubation, p-EGFR (Tyr1068)/EGFR
resultType: IC50

# IC50 lookup, item "C=CC(=O)N[C@H]1C=C(C)c2c(-c3cnc4ccccc4c3)c3c(N)ncnc3n2C1"
82.5 µM
